- target_or_system: AGL55, 55-mer A-domain peptide of PAM_(NS88.2) (Streptococcus pyogenes (GAS isolate …))
- measurement_description: ITC; 4°C
reported_endpoint: pKd
Just the number, please; pKd means minus log10 of the concentration in mol/L.

For K2hPg, kringle-2 domain of human plasminogen (domain or fragment) YVEFSEECMHGSGENYDGKISKTMSGLECQAWDSQSPHAHGYIPSKFPNKNLKKNYCRNPDRDLRPWCFTTDPNKRWEYCDIPRCAA , write its pKd.
8.59
